Target: MIF/CD74 (Macrophage migration inhibitory factor and HLA-DR antigens-associated invariant chain) (Homo sapiens, UniProt P14174+P04233)
Sequence (P14174 whole entry): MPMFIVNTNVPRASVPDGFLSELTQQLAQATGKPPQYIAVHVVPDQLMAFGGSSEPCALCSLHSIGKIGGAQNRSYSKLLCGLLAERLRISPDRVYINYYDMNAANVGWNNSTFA
Sequence (P04233 whole entry): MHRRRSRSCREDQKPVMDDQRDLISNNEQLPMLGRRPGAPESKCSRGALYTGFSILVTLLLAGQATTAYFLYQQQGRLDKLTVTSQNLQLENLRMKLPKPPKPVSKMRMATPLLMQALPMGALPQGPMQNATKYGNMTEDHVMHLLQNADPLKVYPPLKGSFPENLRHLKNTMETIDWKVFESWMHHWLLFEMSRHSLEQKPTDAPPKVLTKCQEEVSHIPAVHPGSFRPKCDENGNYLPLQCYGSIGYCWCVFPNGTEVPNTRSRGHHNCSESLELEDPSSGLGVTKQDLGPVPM
Test: Inhibition of human biotinylated MIF/CD74 interaction
Assay type: protein assay
RECORDED ENDPOINT: IC50

Observe how each entry below is paired with its result.
{"columns": ["SMILES", "IC50"],
 "data": [
  ["COc1cccc(Cc2cn(-c3ccc(O)cc3)nn2)c1OC", "Not Active"],
  ["COc1ccc(Cn2cc(-c3ccc(O)cc3)nn2)cc1", "Not Active"],
  ["Cc1cccc(Cn2cc(-c3ccc(O)cc3)nn2)c1", "Not Active"],
  ["Oc1ccc(-n2cc(-c3cccc4ccccc34)nn2)cc1", "Not Active"]
]}

The record that follows has no IC50 shown yet.
Field IC50 (entry Oc1ccc(-c2cn(Cc3ccccc3)nn2)cc1 ) reads Not Active
